TESTED_SYSTEM: DNA-dependent protein kinase catalytic subunit (Homo sapiens)
METHOD_DESCRIPTION: Inhibition of purified DNA-PK by ADP-Glo Kinase assay
MEASUREMENT_TYPE: IC50 (nM)

Below, each entry is followed by its recorded IC50 result.
[[record]]
chemical_string = "O=c1nc(N2CCOCC2)oc2ccc3ccccc3c12"
tested_system = "DNA-dependent protein kinase catalytic subunit (Homo sapiens)"
measurement_type = "IC50"
value_units = "nM"
readout_number = 720

[[record]]
chemical_string = "CN1CCN(CCOc2cc3c(=O)nc(N4CCOCC4)oc3c3ccccc23)CC1"
tested_system = "DNA-dependent protein kinase catalytic subunit (Homo sapiens)"
measurement_type = "IC50"
value_units = "nM"
readout_number = 760

[[record]]
chemical_string = "O=c1nc(N2CCOCC2)oc2c1cc(OCc1ccccn1)c1ccccc12"
tested_system = "DNA-dependent protein kinase catalytic subunit (Homo sapiens)"
measurement_type = "IC50"
value_units = "nM"
readout_number = 2430

[[record]]
chemical_string = "O=c1nc(N2CCOCC2)oc2c1ccc1ccccc12"
tested_system = "DNA-dependent protein kinase catalytic subunit (Homo sapiens)"
measurement_type = "IC50"
value_units = "nM"
readout_number = 420

[[record]]
chemical_string = "O=c1nc(N2CCOCC2)oc2cc3ccc(OCc4cccnc4)cc3cc12"
tested_system = "DNA-dependent protein kinase catalytic subunit (Homo sapiens)"
measurement_type = "IC50"
value_units = "nM"
readout_number = 1700


(P) O=c1nc(N2CCOCC2)oc2c1cc(OCc1cccnc1)c1ccccc12
(Q) O=c1nc(N2CCOCC2)oc2cc3ccc(OCc4ccccn4)cc3cc12
(R) CN1CCN(CCOc2ccc3cc4oc(N5CCOCC5)nc(=O)c4cc3c2)CC1
(S) CN1CCN(CCOc2cccc3cc4c(=O)nc(N5CCOCC5)oc4cc23)CC1
(T) O=c1nc(N2CCOCC2)oc2cc3c(OCc4cccnc4)cccc3cc12
Task for the reader: rank each entry by its IC50, from the minimum upward. In your reply, arrange the labels in the requested order.
Q, R, T, P, S
(Q: 96 nM, R: 190 nM, T: 330 nM, P: 717 nM, S: 3090 nM)

(I) O=c1nc(N2CCOCC2)oc2cc3c(OCc4ccccn4)cccc3cc12
(II) O=c1nc(N2CCOCC2)oc2cc3ccccc3cc12
Between the two listed entries I and II , which has its IC50 at the higher number? The response must carry the label of the picked entry.
II

---

TESTED_SYSTEM: DNA-dependent protein kinase catalytic subunit (Homo sapiens, UniProt P78527)
Sequence (P78527 whole entry): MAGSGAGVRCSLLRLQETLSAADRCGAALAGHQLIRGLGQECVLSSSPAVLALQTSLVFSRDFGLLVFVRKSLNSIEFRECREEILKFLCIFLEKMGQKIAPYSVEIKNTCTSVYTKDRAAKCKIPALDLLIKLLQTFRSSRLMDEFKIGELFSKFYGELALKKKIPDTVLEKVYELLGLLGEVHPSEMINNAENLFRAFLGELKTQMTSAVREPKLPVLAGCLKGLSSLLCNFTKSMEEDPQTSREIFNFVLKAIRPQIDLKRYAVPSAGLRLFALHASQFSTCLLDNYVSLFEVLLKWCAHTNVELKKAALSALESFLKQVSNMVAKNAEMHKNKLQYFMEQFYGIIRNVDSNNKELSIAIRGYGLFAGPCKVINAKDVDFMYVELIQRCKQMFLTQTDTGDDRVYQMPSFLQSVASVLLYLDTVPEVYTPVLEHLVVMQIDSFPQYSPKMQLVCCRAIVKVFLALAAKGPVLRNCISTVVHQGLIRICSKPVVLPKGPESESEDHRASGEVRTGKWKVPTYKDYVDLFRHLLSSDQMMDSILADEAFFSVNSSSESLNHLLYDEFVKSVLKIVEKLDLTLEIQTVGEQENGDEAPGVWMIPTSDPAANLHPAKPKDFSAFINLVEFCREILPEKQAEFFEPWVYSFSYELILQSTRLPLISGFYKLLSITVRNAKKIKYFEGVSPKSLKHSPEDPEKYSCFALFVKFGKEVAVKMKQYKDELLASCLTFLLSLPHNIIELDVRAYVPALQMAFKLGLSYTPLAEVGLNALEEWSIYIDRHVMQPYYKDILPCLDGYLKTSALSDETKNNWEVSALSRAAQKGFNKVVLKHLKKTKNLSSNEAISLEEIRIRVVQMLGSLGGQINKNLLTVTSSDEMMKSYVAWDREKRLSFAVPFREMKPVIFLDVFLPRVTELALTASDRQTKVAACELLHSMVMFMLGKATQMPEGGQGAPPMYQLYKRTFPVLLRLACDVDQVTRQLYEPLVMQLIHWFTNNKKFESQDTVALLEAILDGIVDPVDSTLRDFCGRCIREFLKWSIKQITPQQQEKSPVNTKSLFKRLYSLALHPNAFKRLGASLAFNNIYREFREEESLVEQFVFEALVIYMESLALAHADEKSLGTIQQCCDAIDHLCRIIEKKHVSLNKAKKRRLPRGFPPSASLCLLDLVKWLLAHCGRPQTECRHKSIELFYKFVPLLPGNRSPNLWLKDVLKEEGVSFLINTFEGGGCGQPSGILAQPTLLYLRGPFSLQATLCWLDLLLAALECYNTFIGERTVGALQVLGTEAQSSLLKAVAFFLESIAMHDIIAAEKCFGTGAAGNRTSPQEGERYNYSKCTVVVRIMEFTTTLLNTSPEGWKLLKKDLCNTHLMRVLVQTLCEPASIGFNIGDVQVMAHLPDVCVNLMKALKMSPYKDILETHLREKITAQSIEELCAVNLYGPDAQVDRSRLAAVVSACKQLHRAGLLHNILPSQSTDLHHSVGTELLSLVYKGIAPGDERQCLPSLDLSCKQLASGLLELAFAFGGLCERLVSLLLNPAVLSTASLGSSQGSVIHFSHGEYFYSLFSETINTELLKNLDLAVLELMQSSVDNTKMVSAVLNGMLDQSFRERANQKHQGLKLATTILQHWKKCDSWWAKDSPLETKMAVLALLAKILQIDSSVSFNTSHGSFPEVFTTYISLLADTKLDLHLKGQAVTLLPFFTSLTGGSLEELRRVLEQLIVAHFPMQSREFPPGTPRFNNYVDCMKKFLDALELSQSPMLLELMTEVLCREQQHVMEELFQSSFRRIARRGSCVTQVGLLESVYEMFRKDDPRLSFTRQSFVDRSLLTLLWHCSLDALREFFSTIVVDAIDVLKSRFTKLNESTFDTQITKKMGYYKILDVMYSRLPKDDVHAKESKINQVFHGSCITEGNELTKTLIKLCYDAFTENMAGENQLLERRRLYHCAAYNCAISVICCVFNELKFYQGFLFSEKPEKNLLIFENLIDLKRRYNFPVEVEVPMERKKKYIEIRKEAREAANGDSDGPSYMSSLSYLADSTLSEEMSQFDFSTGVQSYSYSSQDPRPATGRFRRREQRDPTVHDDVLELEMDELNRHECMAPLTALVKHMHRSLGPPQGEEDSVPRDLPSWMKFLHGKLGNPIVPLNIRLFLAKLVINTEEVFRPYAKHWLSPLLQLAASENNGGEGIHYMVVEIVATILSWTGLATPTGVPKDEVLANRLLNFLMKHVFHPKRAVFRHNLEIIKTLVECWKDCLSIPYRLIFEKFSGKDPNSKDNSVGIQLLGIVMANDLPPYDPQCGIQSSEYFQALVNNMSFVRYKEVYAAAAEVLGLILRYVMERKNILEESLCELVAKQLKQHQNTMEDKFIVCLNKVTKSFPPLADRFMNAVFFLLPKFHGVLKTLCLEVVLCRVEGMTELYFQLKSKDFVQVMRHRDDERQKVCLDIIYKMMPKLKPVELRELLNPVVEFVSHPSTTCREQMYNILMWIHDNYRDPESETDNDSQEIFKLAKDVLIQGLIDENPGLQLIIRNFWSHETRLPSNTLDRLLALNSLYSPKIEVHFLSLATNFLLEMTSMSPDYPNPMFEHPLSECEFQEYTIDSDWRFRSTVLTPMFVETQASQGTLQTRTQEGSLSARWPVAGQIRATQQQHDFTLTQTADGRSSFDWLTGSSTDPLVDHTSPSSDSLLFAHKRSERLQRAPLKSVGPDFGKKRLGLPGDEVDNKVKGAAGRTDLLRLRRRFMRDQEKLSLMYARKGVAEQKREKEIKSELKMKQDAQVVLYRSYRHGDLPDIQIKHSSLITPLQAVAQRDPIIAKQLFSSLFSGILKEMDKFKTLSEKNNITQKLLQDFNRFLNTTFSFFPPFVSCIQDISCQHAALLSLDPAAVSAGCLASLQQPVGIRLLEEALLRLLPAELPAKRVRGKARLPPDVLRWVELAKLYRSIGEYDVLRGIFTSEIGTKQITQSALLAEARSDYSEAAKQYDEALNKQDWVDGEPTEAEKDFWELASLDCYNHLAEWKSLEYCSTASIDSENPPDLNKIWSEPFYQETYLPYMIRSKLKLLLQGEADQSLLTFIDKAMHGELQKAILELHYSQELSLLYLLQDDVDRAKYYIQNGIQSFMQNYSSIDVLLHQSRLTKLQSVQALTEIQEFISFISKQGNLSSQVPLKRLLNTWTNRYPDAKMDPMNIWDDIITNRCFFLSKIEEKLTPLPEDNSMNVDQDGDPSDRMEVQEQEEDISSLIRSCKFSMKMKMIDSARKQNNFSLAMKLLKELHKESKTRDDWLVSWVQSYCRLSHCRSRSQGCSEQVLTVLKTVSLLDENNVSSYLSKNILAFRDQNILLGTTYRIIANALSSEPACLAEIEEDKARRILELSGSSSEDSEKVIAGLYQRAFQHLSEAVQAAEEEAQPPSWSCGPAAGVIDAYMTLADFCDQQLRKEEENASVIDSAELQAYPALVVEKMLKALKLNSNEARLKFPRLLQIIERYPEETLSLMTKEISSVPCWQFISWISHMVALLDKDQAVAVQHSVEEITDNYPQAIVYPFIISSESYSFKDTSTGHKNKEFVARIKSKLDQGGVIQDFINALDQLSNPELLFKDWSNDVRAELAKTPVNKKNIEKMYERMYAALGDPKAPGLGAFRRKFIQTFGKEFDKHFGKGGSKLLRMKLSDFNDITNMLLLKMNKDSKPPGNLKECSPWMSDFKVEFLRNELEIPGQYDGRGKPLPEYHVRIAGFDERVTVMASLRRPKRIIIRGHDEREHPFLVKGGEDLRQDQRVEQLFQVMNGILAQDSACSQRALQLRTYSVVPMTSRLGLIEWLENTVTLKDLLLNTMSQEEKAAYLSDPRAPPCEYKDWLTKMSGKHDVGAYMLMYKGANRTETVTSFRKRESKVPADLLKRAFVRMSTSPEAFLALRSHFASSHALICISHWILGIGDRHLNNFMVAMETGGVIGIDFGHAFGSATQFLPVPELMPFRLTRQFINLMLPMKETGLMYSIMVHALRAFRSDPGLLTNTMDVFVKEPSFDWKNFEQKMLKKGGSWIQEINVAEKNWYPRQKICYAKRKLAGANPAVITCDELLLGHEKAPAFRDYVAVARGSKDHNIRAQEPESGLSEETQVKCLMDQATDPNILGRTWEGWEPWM
METHOD_DESCRIPTION: Inhibition of DNA-PK
MEASUREMENT_TYPE: IC50 (nM)
Provide only the numeric value, understood in nM.

Supply recorded IC50 for O=c1cc(N2CCOCC2)oc2c1ccc1ccccc12 here.
300
